# procedure-details: Hemolytic activity in rabbit RBC measured after 1 hrs by multimode reader assay
# Type: toxicity, cell-based, Oryctolagus cuniculus, Erythrocyte
# test-conditions: rabbit red blood cells (erythrocytes)
Reported HC50 at 1 h values follow for various compounds
attribute-measured: HC50 at 1 h (µg/mL)

# smi, operator-symbol, data-value
rows = [
    ("C=C[C@@](C)(/C=C/c1ccc(OCCCBr)cc1)CCC=C(C)C", ">", 200),
    ("C=C[C@@](C)(/C=C/c1ccc(OCCCCN)cc1)CCC=C(C)C", "=", 65.9),
    ("C=C[C@@](C)(/C=C/c1ccc(OCCCC[N+](C)(CCCC)CCCC)cc1)CCC=C(C)C.[I-]", "=", 40.6),
    ("C=C[C@@](C)(/C=C/c1ccc(OCCCCCCCCN(CC)CC)cc1)CCC=C(C)C", "=", 83.5),
    ("C=C[C@@](C)(/C=C/c1ccc(OCCCCN(C)CCCN(C)CCCNC)cc1)CCC=C(C)C", "=", 56.6),
    ("C=C[C@@](C)(/C=C/c1ccc(OCCCN(CC)CC)cc1)CCC=C(C)C", "=", 102),
    ("C=C[C@@](C)(/C=C/c1ccc(OCCCN(C)C)cc1)CCC=C(C)C", "=", 88.5),
    ("C=C[C@@](C)(/C=C/c1ccc(OCCCCNCCCCCC)cc1)CCC=C(C)C", "=", 120),
    ("C=C[C@@](C)(/C=C/c1ccc(OCCCCNC(=N)N)cc1)CCC=C(C)C", "=", 75.7),
    ("C=C[C@@](C)(/C=C/c1ccc(OCCCCN2CCCNCCNCCCNCC2)cc1)CCC=C(C)C", "=", 62.7),
    ("C=C[C@@](C)(/C=C/c1ccc(OCCCCN2CCN(CCCN(C)C)CC2)cc1)CCC=C(C)C", "=", 52),
    ("C=C[C@@](C)(/C=C/c1ccc(OCCCCCCBr)cc1)CCC=C(C)C", ">", 200),
    ("C=C[C@@](C)(/C=C/c1ccc(OCCCCN(CC)CC)cc1)CCC=C(C)C", "=", 109),
    ("C=C[C@@](C)(/C=C/c1ccc(OCCCCBr)cc1)CCC=C(C)C", ">", 200),
    ("C=C[C@@](C)(/C=C/c1ccc(OCCCCCCN(CC)CC)cc1)CCC=C(C)C", "=", 65),
    ("C=C[C@@](C)(/C=C/c1ccc(OCCCC[N+](C)(C)C)cc1)CCC=C(C)C.[I-]", "=", 34.2),
    ("C=C[C@@](C)(/C=C/c1ccc(OCCCCNCCN(CCN)CCN)cc1)CCC=C(C)C", "=", 32.9),
    ("C=C[C@@](C)(/C=C/c1ccc(OCCCCNCCCCCCCCCC)cc1)CCC=C(C)C", ">", 200),
    ("C=C[C@@](C)(/C=C/c1ccc(OCCCCCCCCBr)cc1)CCC=C(C)C", ">", 200),
    ("C=C[C@@](C)(/C=C/c1ccc(O)cc1)CCC=C(C)C", "=", 89.7),
]

###

# Tested on: Acinetobacter baumannii
# procedure-details: Antibacterial activity against Acinetobacter baumannii R2889 assessed as inhibition of bacterial growth incubated for 24 hrs by CLSI based broth dilution method
# Type: functional
Reported MIC values follow for various compounds
attribute-measured: MIC (µg/mL)

# smi, attribute-measured, operator-symbol, data-value
measured = [
    ("C=C[C@@](C)(/C=C/c1ccc(OCCCCN2CCCNCCNCCCNCC2)cc1)CCC=C(C)C", "MIC", "=", 3.12),
    ("C=C[C@@](C)(/C=C/c1ccc(O)cc1)CCC=C(C)C", "MIC", ">", 50),
    ("C=C[C@@](C)(/C=C/c1ccc(OCCCCN(C)CCCN(C)C)cc1)CCC=C(C)C", "MIC", "=", 1.56),
]

###

# procedure-details: Cytotoxicity against mouse NCTC clone 929 cells assessed as cell viability at 6.25 ug/ml incubated for 24 hrs by CCK-8 assay relative to control
# Assay type: toxicity, cell-based
# test-conditions: at 6.25 µg/mL, read-out: Activity

# smi, viability at 24 h, 6.25 ug/ml [%]
measured = [
    ("C=C[C@@](C)(/C=C/c1ccc(OCCCCN(CCCN(C)C)CCCN(C)C)cc1)CCC=C(C)C", 84.9),
]

###

# procedure-details: Hemolytic activity in rabbit RBC measured after 1 hrs by multimode reader assay
# Type: toxicity, cell-based, Oryctolagus cuniculus, Erythrocyte
# test-conditions: rabbit red blood cells (erythrocytes)
Reported HC50 at 1 h values follow for various molecules

# smi, operator-symbol, HC50 at 1 h [µg/mL]
records = [
    ("C=C[C@@](C)(/C=C/c1ccc(OCCCC[N+](C)(CC)CC)cc1)CCC=C(C)C.[I-]", "=", 57),
    ("C=C[C@@](C)(/C=C/c1ccc(OCCCCN2CCCC2)cc1)CCC=C(C)C", "=", 58.2),
    ("C=C[C@@](C)(/C=C/c1ccc(OCCCCNCCSC)cc1)CCC=C(C)C", "=", 32.5),
    ("C=C[C@@](C)(/C=C/c1ccc(OCCCCN(Cc2ccccn2)Cc2ccccn2)cc1)CCC=C(C)C", ">", 200),
    ("C=C[C@@](C)(/C=C/c1ccc(OCCCN(CCCC)CCCC)cc1)CCC=C(C)C", ">", 200),
    ("C=C[C@@](C)(/C=C/c1ccc(OCCCCCCCCCCN(CC)CC)cc1)CCC=C(C)C", ">", 200),
    ("C=C[C@@](C)(/C=C/c1ccc(OCCCCN2CCNCCNCCNCCNCC2)cc1)CCC=C(C)C", "=", 75.2),
    ("C=C[C@@](C)(/C=C/c1ccc(OCCCCN(C)CCCNC)cc1)CCC=C(C)C", "=", 37.4),
    ("C=C[C@@](C)(/C=C/c1ccc(OCCCCNCCCCCCCC)cc1)CCC=C(C)C", ">", 200),
    ("C=C[C@@](C)(/C=C/c1ccc(OCCCCCCCCCCBr)cc1)CCC=C(C)C", ">", 200),
    ("C=C[C@@](C)(/C=C/c1ccc(OCCCCNCC)cc1)CCC=C(C)C", "=", 21.8),
    ("C=C[C@@](C)(/C=C/c1ccc(OCCCCNCCCC)cc1)CCC=C(C)C", "=", 32.4),
    ("C=C[C@@](C)(/C=C/c1ccc(OCCCCN(C)CCCN(C)C)cc1)CCC=C(C)C", "=", 32.5),
    ("C=C[C@@](C)(/C=C/c1ccc(OCCCCN(CCCC)CCCC)cc1)CCC=C(C)C", ">", 200),
    ("C=C[C@@](C)(/C=C/c1ccc(OCCCCN2CCN(C)CC2)cc1)CCC=C(C)C", "=", 104),
    ("C=C[C@@](C)(/C=C/c1ccc(OCCCCN(CCCN(C)C)CCCN(C)C)cc1)CCC=C(C)C", "=", 113),
    ("C=C[C@@](C)(/C=C/c1ccc(OCCCCN(C)C)cc1)CCC=C(C)C", "=", 41.7),
    ("C=C[C@@](C)(/C=C/c1ccc(OCCCCN2CCSCC2)cc1)CCC=C(C)C", ">", 200),
]

###

# procedure-details: Cytotoxicity against mouse NCTC clone 929 cells assessed as cell viability at 12.5 ug/ml incubated for 24 hrs by CCK-8 assay relative to control
# Assay type: toxicity, cell-based
# test-conditions: at 12.5 µg/mL, read-out: Activity

# smi, viability at 24 h, 12.5 ug/ml
records = [
    ("C=C[C@@](C)(/C=C/c1ccc(OCCCCN(CCCN(C)C)CCCN(C)C)cc1)CCC=C(C)C", "84.5%"),
]

###

# procedure-details: Cytotoxicity against HEK293 cells assessed as cell viability at 6.25 ug/ml incubated for 24 hrs by CCK-8 assay relative to control
# Format: toxicity, cell-based
# test-conditions: human, at 6.25 µg/mL, read-out: Activity
attribute-measured: viability at 24 h, 6.25 ug/ml (%)

# smi, unit, data-value
data = [
    ("C=C[C@@](C)(/C=C/c1ccc(OCCCCN(CCCN(C)C)CCCN(C)C)cc1)CCC=C(C)C", "%", 93.8),
]

###

# procedure-details: Cytotoxicity against mouse NCTC clone 929 cells assessed as cell viability incubated for 24 hrs by CCK-8 assay
# Format: toxicity, cell-based

# smi, CC50 at 24 h (µg/mL)
measured = [
    ("C=C[C@@](C)(/C=C/c1ccc(OCCCCN(CCCN(C)C)CCCN(C)C)cc1)CCC=C(C)C", 36.8),
]

###

# Test system: Escherichia coli
# procedure-details: Antibacterial activity against Escherichia coli ATCC 25922 assessed as inhibition of bacterial growth incubated for 24 hrs by CLSI based broth dilution method
# Assay type: functional
attribute-measured: log10(MIC) (log10 of the value in µg/mL)

# smi, data-value
rows = [
    ("C=C[C@@](C)(/C=C/c1ccc(OCCCCNCC)cc1)CCC=C(C)C", 1.10),
    ("C=C[C@@](C)(/C=C/c1ccc(OCCCCN2CCN(CCCN(C)C)CC2)cc1)CCC=C(C)C", 0.49),
    ("C=C[C@@](C)(/C=C/c1ccc(OCCCCNCCN(CCN)CCN)cc1)CCC=C(C)C", 0.49),
    ("C=C[C@@](C)(/C=C/c1ccc(OCCCCNC(=N)N)cc1)CCC=C(C)C", 1.40),
    ("C=C[C@@](C)(/C=C/c1ccc(OCCCCN(C)CCCN(C)CCCNC)cc1)CCC=C(C)C", 0.19),
    ("C=C[C@@](C)(/C=C/c1ccc(OCCCCN2CCNCCNCCNCCNCC2)cc1)CCC=C(C)C", 0.80),
    ("C=C[C@@](C)(/C=C/c1ccc(OCCCC[N+](C)(C)C)cc1)CCC=C(C)C.[I-]", 0.80),
    ("C=C[C@@](C)(/C=C/c1ccc(OCCCCN)cc1)CCC=C(C)C", 1.10),
    ("C=C[C@@](C)(/C=C/c1ccc(OCCCCN(C)CCCN(C)C)cc1)CCC=C(C)C", 0.49),
    ("C=C[C@@](C)(/C=C/c1ccc(OCCCCN2CCCNCCNCCCNCC2)cc1)CCC=C(C)C", 0.49),
    ("C=C[C@@](C)(/C=C/c1ccc(OCCCCN(C)C)cc1)CCC=C(C)C", 1.70),
]
